Test system SK-MEL-2 melanoma, GI50 listed for each of the molecules.

API: value(readout= GI50, system= SK-MEL-2 melanoma, query= c1ccc(/C(=N\Nc2ccc3ccccc3n2)c2ccccn2)cc1 ) 604 nM

API: value(readout= GI50, system= SK-MEL-2 melanoma, query= O=C1COCCN1c1ccc(NCc2cn(C(=O)c3ccc(Cl)cc3)c3ccccc23)cc1 ) 2190 nM

API: value(readout= GI50, system= SK-MEL-2 melanoma, query= Cc1c(C(N)=O)sc2c1c(=O)n(Cc1ccccc1)c1nnc(S(=O)(=O)CC(=O)Nc3ccc(Cl)cc3)n21 ) 2830 nM

API: value(readout= GI50, system= SK-MEL-2 melanoma, query= CCC(=O)c1c(C(F)(F)F)n([O-])c2ccccc2[n+]1=O ) 14900 nM

API: value(readout= GI50, system= SK-MEL-2 melanoma, query= COc1ccc(CN=C(N)N=C(N)N)cc1OC ) 859000 nM

API: value(readout= GI50, system= SK-MEL-2 melanoma, query= Nc1ccccc1C#C/C=C\C#Cc1ccccc1F ) 17300 nM
